# experimentNotes: Cytotoxicity against MDCK cells
# Format: cell-based, Canis lupus familiaris
# conditionSummary: dog
assayEndpoint: CC50 (µM)
Use µM as the unit, but write only the number.

Record summary for COc1ccc(C2(C(=O)N(C)c3ccccc3)CCCC2)cc1 : reported CC50 = 69

Noted for CN(C(=O)C1(c2ccc(Cl)cc2)CC1)c1ccccc1 : its CC50 reads 49

So for CN(C(=O)C1(c2ccccc2)CCCC1)c1cccc(Cl)c1 , the logged CC50 turned out to be 17

Given item CN(C(=O)C1(c2ccccc2)CCCC1)c1ccccc1Cl , the value recorded as its CC50 is 23

Value of measured CC50 for the entry CN(C(=O)C1(c2ccc(Cl)cc2)CCCC1)c1ccccc1 : 21

// recorded CC50 for CN(C(=O)C1(c2ccc(Cl)cc2)CCC1)c1ccccc1 : 24

// recorded CC50 for CN(C(=O)C1(c2cccc(C(F)(F)F)c2)CCCC1)c1ccccc1 : 20

What the record says about O=C(N1CCCc2ccccc21)C1(c2ccccc2)CCCC1 : CC50 is 24

Entry CN(C(=O)C1(c2ccccc2)CCCC1)c1ccc(C(F)(F)F)cc1 ; CC50 = 21

Briefly, CC50 measured for CCN(C(=O)C1(c2ccccc2)CCCC1)c1ccccc1 : 56
